test system: IGROV1 ovarian; assay: NCI tumour cell line growth inhibition, 384-well format
The following compounds are shown together with reported TGI values.

Some compounds with known TGI results, for comparison:
[[record]]
compound_structure = "COCCNCc1ccc(-c2cc3nccc(Oc4ccc(NC(=O)C5(C(=O)Nc6ccc(F)cc6)CC5)cc4F)c3s2)nc1"
result = "2.67 µM"

[[record]]
compound_structure = "C[C@H]1COCCN1c1nc(-c2cnc(N)cc2C(F)F)nc(N2CCOCC2)n1"
result = "0.265 µM"

[[record]]
compound_structure = "COc1cc2c(NC3CCN(C(C)C)CC3)nc(C3CCCCC3)nc2cc1OCCCN1CCCC1"
result = "11.3 µM"


Field: next compound
Dear colleague, I am looking for the recorded TGI of the following compound: CC[C@]1(O)C[C@H]2CN(CCc3c([nH]c4ccccc34)[C@@](C(=O)OC)(c3cc4c(cc3OC)N(C)[C@H]3[C@@](O)(C(=O)OC)[C@H](OC(C)=O)[C@]5(CC)C=CCN6CC[C@]43[C@@H]65)C2)C1 4.4 µM

Cited source: PubChem BioAssay (NCI)
